System: Scirpus juncoides
runDescription: Test Example 2: herbicidal effect test by treatment during growing period in paddy rice cultivation (seven days after seeding)
Assay type: in vivo
assayContext: 120 g/10a active ingredient, assessed 14 days after treatment, dry weight vs untreated area
Experimental: This test was conducted in a double system per one agent solution concentration area, and the herbicidal rates (%) were determined by the following equation (Math. 1) on 14 days after the treatment with the agents. Herbicidal Rate (%)={1-(Average Dry Weight (g) of Plant of Treated Area)/(Average Dry Weight (g) of Plant of Untreated Area)}×100 [Math. 1] Herbicidal Effect Test by Treatment During Growing Period in Paddy Rice Cultivation […]

{"molecule": "CC(C)c1c(Cc2ccccc2NS(=O)(=O)C(F)(F)F)c(=O)on1C(C)C [Compound 1-68]", "Herbicidal rate (%) Scirpus juncoides": "80%"}
{"molecule": "CCCC(C)n1oc(=O)c(Cc2ccccc2N(S(C)(=O)=O)S(=O)(=O)C(F)(F)F)c1C (centres unmarked) [Compound 1-894]", "Herbicidal rate (%) Scirpus juncoides": "80%"}
{"molecule": "C=CCOC(=O)N(c1ccccc1Cc1c(C)n(C(C)CC)oc1=O)S(=O)(=O)C(F)(F)F (centres unmarked) [Compound 1-706]", "Herbicidal rate (%) Scirpus juncoides": "90%"}
{"molecule": "Cc1c(Cc2ccccc2N(S(C)(=O)=O)S(=O)(=O)C(F)(F)F)c(=O)on1C(C)(C)C [Compound 1-889]", "Herbicidal rate (%) Scirpus juncoides": "90%"}
{"molecule": "C=CCOC(=O)N(c1ccccc1Cc1c(C)n(CC(C)C)oc1=O)S(=O)(=O)C(F)(F)F [Compound 1-707]", "Herbicidal rate (%) Scirpus juncoides": "90%"}
{"molecule": "Cc1c(Cc2ccccc2NS(=O)(=O)C(F)(F)F)c(=O)on1CCOC(C)C [Compound 1-155]", "Herbicidal rate (%) Scirpus juncoides": "80%"}
{"molecule": "Cc1c(Cc2ccccc2N(S(=O)(=O)C(F)(F)F)S(=O)(=O)C(F)(F)F)c(=O)on1Cc1ccc(F)cc1F [Compound 1-1026]", "Herbicidal rate (%) Scirpus juncoides": "80%"}
{"molecule": "Cc1ccc(C(C)n2oc(=O)c(Cc3ccccc3NS(=O)(=O)C(F)(F)F)c2C)cc1 (centres unmarked) [Compound 1-208]", "Herbicidal rate (%) Scirpus juncoides": "80%"}

* * *

List of Herbicidal rate (%) Scirpus juncoides values.
Test system: Scirpus juncoides
runDescription: Test Example 2: herbicidal effect test by treatment during growing period in paddy rice cultivation (seven days after seeding)
Format: in vivo
assayContext: 120 g/10a active ingredient, assessed 14 days after treatment, dry weight vs untreated area

{"compound": "Cc1c(Cc2ccccc2N(S(=O)(=O)C(F)(F)F)S(=O)(=O)C(F)(F)F)c(=O)on1CC[S+](C)[O-] (stereo not shown)", "scaleUnit": "%", "Herbicidal rate (%) Scirpus juncoides": 90}
{"compound": "Cc1c(Cc2ccccc2N(S(=O)(=O)C(F)(F)F)S(=O)(=O)C(F)(F)F)c(=O)on1CCOCC(C)C", "scaleUnit": "%", "Herbicidal rate (%) Scirpus juncoides": 90}
{"compound": "Cc1c(Cc2ccccc2NS(=O)(=O)C(F)(F)F)c(=O)on1Cc1ccc(F)cc1Cl", "scaleUnit": "%", "Herbicidal rate (%) Scirpus juncoides": 40}
{"compound": "Cc1c(Cc2ccccc2N(S(=O)(=O)C(F)(F)F)S(=O)(=O)C(F)(F)F)c(=O)on1CCc1ccccc1", "scaleUnit": "%", "Herbicidal rate (%) Scirpus juncoides": 90}
{"compound": "Cc1c(Cc2ccccc2NS(=O)(=O)C(F)(F)F)c(=O)on1Cc1ccc(F)cc1", "scaleUnit": "%", "Herbicidal rate (%) Scirpus juncoides": 100}
{"compound": "CC(=O)N(c1ccccc1Cc1c(C)n(C(C)(C)C)oc1=O)S(=O)(=O)C(F)(F)F", "scaleUnit": "%", "Herbicidal rate (%) Scirpus juncoides": 90}
{"compound": "Cc1c(Cc2ccccc2N(S(=O)(=O)C(F)(F)F)S(=O)(=O)C(F)(F)F)c(=O)on1C(C)c1ccc(F)cc1 (stereo not shown)", "scaleUnit": "%", "Herbicidal rate (%) Scirpus juncoides": 100}

* * *

Test system: Amaranthus viridis
runDescription: Test Example 4: herbicidal effect test by treatment of leave and stem in dry field farming (seven days after seeding)
Type: in vivo
assayContext: 120 g/10a active ingredient; emulsion sprayed seven days after seeding; evaluated 14 days after treatment
assayEndpoint: herbicidal effect (herbicidal rate), Amaranthus viridis (%)

{"compound": "Cc1c(Cc2ccccc2N(C(=O)OCC(C)C)S(=O)(=O)C(F)(F)F)c(=O)on1C", "scaleUnit": "%", "reportedValue": 40}
{"compound": "CCC(C)n1oc(=O)c(Cc2ccccc2N(C(=O)c2ccc(C)cc2)S(=O)(=O)C(F)(F)F)c1C (stereo not drawn)", "scaleUnit": "%", "reportedValue": 40}
{"compound": "Cc1c(Cc2ccccc2N(S(=O)(=O)C(F)(F)F)S(=O)(=O)C(F)(F)F)c(=O)on1C(C)C", "scaleUnit": "%", "reportedValue": 40}
{"compound": "CCCCC(CC)Cn1oc(=O)c(Cc2ccccc2NS(=O)(=O)C(F)(F)F)c1C (stereo not drawn)", "scaleUnit": "%", "reportedValue": 50}
{"compound": "CCC(CC)n1oc(=O)c(Cc2ccccc2N(C(C)=O)S(=O)(=O)C(F)(F)F)c1C", "scaleUnit": "%", "reportedValue": 40}
{"compound": "CCC(C)Cn1oc(=O)c(Cc2ccccc2N(C(=O)OCCOC)S(=O)(=O)C(F)(F)F)c1C (stereo not drawn)", "scaleUnit": "%", "reportedValue": 60}
{"compound": "CC(=O)N(c1ccccc1Cc1c(C)n(C(C)(C)C)oc1=O)S(=O)(=O)C(F)(F)F", "scaleUnit": "%", "reportedValue": 40}
{"compound": "CCC(CC)n1oc(=O)c(Cc2ccccc2N(C(=O)CC(C)C)S(=O)(=O)C(F)(F)F)c1C", "scaleUnit": "%", "reportedValue": 40}
{"compound": "CSCCn1oc(=O)c(Cc2ccccc2N(C(=O)C(C)C)S(=O)(=O)C(F)(F)F)c1C", "scaleUnit": "%", "reportedValue": 40}
{"compound": "Cc1c(Cc2ccccc2N(C(=O)OCc2ccccc2)S(=O)(=O)C(F)(F)F)c(=O)on1C(C)(C)C", "scaleUnit": "%", "reportedValue": 40}
{"compound": "CCC(C)Cn1oc(=O)c(Cc2ccccc2NS(=O)(=O)C(F)(F)F)c1C (stereo not drawn)", "scaleUnit": "%", "reportedValue": 40}
{"compound": "CCNC(=O)N(c1ccccc1Cc1c(C)n(C(C)c2ccccc2)oc1=O)S(=O)(=O)C(F)(F)F (stereo not drawn)", "scaleUnit": "%", "reportedValue": 40}
{"compound": "CCC(C)n1oc(=O)c(Cc2ccccc2N(C(=O)c2ccccc2)S(=O)(=O)C(F)(F)F)c1C (stereo not drawn)", "scaleUnit": "%", "reportedValue": 40}
{"compound": "CCC(=O)N(c1ccccc1Cc1c(C)n(CC(C)(C)C)oc1=O)S(=O)(=O)C(F)(F)F", "scaleUnit": "%", "reportedValue": 40}
{"compound": "Cc1ccc(S(=O)(=O)N(c2ccccc2Cc2c(C)n(C(C)C)oc2=O)S(=O)(=O)C(F)(F)F)cc1", "scaleUnit": "%", "reportedValue": 40}
{"compound": "Cc1c(Cc2ccccc2N(C(=O)C(C)C)S(=O)(=O)C(F)(F)F)c(=O)on1C(C)c1ccccc1 (stereo not drawn)", "scaleUnit": "%", "reportedValue": 40}
{"compound": "Cc1c(Cc2ccccc2N(C(=O)CC(C)C)S(=O)(=O)C(F)(F)F)c(=O)on1CC(C)C", "scaleUnit": "%", "reportedValue": 40}
{"compound": "COC(=O)N(c1ccccc1Cc1c(C)n(C(C)c2ccccc2)oc1=O)S(=O)(=O)C(F)(F)F (stereo not drawn)", "scaleUnit": "%", "reportedValue": 40}
{"compound": "Cc1c(Cc2ccccc2N(C(=O)Oc2ccccc2)S(=O)(=O)C(F)(F)F)c(=O)on1C(C)(C)C", "scaleUnit": "%", "reportedValue": 40}
{"compound": "C=CCn1oc(=O)c(Cc2ccccc2N(S(=O)(=O)C(F)(F)F)S(=O)(=O)C(F)(F)F)c1C", "scaleUnit": "%", "reportedValue": 60}
{"compound": "C=CC(C)n1oc(=O)c(Cc2ccccc2NS(=O)(=O)C(F)(F)F)c1C (stereo not drawn)", "scaleUnit": "%", "reportedValue": 60}
{"compound": "CCOC(=O)N(c1ccccc1Cc1c(C)n(CC(C)CC)oc1=O)S(=O)(=O)C(F)(F)F (stereo not drawn)", "scaleUnit": "%", "reportedValue": 60}
{"compound": "CCCC(C)n1oc(=O)c(Cc2ccccc2N(C(=O)C2CC2)S(=O)(=O)C(F)(F)F)c1C (stereo not drawn)", "scaleUnit": "%", "reportedValue": 40}
{"compound": "C=CCOC(=O)N(c1ccccc1Cc1c(C)n(CC(C)C)oc1=O)S(=O)(=O)C(F)(F)F", "scaleUnit": "%", "reportedValue": 40}
{"compound": "CCC(C)n1oc(=O)c(Cc2ccccc2N(C(=O)C2CCCO2)S(=O)(=O)C(F)(F)F)c1C (stereo not drawn)", "scaleUnit": "%", "reportedValue": 40}
{"compound": "Cc1c(Cc2ccccc2N(S(C)(=O)=O)S(=O)(=O)C(F)(F)F)c(=O)on1C(C)C", "scaleUnit": "%", "reportedValue": 40}
{"compound": "Cc1c(Cc2ccccc2N(C(=O)CC(C)C)S(=O)(=O)C(F)(F)F)c(=O)on1CC(C)(C)C", "scaleUnit": "%", "reportedValue": 40}
{"compound": "Cc1c(Cc2ccccc2N(S(C)(=O)=O)S(=O)(=O)C(F)(F)F)c(=O)on1CC(C)C", "scaleUnit": "%", "reportedValue": 40}
{"compound": "CCCOC(=O)N(c1ccccc1Cc1c(C)n(C(C)CC)oc1=O)S(=O)(=O)C(F)(F)F (stereo not drawn)", "scaleUnit": "%", "reportedValue": 40}
{"compound": "Cc1c(Cc2ccccc2NS(=O)(=O)C(F)(F)F)c(=O)on1C(c1ccccc1)C(C)C (stereo not drawn)", "scaleUnit": "%", "reportedValue": 40}
